The origin of these recorded values is BindingDB's records for patent US9242996.

target: Mitogen-activated protein kinase 1 (Homo sapiens, UniProt P28482); assay: Kinase Assay (New); settings: pH 7.5
Sequence (P28482 whole entry): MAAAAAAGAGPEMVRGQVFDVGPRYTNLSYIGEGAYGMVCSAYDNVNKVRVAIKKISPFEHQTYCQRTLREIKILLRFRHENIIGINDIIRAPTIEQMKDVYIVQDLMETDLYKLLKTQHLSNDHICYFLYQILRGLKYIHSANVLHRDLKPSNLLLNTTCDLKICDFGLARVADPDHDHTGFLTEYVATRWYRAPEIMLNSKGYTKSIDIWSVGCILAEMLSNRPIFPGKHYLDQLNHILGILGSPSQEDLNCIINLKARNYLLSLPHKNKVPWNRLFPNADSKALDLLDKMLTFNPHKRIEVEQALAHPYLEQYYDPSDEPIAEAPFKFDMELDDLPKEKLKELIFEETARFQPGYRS
measure_name: IC50 (nM)
The figure you give is taken to be in nM; do not add the unit.

Form field IC50, entry Cc1nn(C)cc1-c1cnc(N)c(-c2ccc(C(=O)NCc3cccc(S(C)(=O)=O)c3)c(F)c2)n1 : 7.33
